# yeast surface expression annotations
B1: scFv; the commonest letter at each place (parent)
chain 1: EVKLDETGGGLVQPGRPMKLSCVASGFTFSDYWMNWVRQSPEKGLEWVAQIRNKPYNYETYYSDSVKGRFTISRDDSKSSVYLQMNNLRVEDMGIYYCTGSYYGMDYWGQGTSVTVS
chain 2: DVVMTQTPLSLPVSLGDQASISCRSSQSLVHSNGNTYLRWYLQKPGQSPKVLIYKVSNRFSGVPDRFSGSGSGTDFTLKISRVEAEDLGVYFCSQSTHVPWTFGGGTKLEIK

Variants of: B1
Assay: yeast surface expression (ratio to wild type); higher = more expressed
Conditions: format: scFv 4-4-20, heavy + light
endpointLabel: yeast surface expression

mutations="chain 1 S101D W108A" endpointlabel="yeast surface expression" endpointresult=0.443
mutations="chain 1 S30W" endpointlabel="yeast surface expression" endpointresult=0.701
mutations="chain 1 M34N W36A" endpointlabel="yeast surface expression" endpointresult=0.608
mutations="chain 1 M105S Y107W" endpointlabel="yeast surface expression" endpointresult=0.826
mutations="chain 1 M34I" endpointlabel="yeast surface expression" endpointresult=0.873
mutations="chain 1 F29Q Y32E W33S" endpointlabel="yeast surface expression" endpointresult=0.761
mutations="chain 1 S101M Y107H" endpointlabel="yeast surface expression" endpointresult=0.483
mutations="chain 1 Y102V Y103C" endpointlabel="yeast surface expression" endpointresult=0.798
mutations="chain 1 S30R W33F M34V" endpointlabel="yeast surface expression" endpointresult=0.767
mutations="chain 1 G104V Y107K" endpointlabel="yeast surface expression" endpointresult=0.324
mutations="chain 1 T28Y D31V" endpointlabel="yeast surface expression" endpointresult=0.509
mutations="chain 1 S101D Y103K" endpointlabel="yeast surface expression" endpointresult=0.764
mutations="chain 1 Y107S G109C" endpointlabel="yeast surface expression" endpointresult=0.174
mutations="chain 1 S101C Y107T" endpointlabel="yeast surface expression" endpointresult=0.62
mutations="chain 1 F29A W36S" endpointlabel="yeast surface expression" endpointresult=0.313
mutations="chain 1 Y103I D106L" endpointlabel="yeast surface expression" endpointresult=0.354
mutations="chain 1 N35R W36R" endpointlabel="yeast surface expression" endpointresult=0.425
mutations="chain 1 T28Y Y32K" endpointlabel="yeast surface expression" endpointresult=0.818
mutations="chain 1 T28G" endpointlabel="yeast surface expression" endpointresult=0.994
mutations="chain 1 S30M Y32R" endpointlabel="yeast surface expression" endpointresult=0.465
mutations="chain 1 T28M M34N" endpointlabel="yeast surface expression" endpointresult=0.566
mutations="chain 1 D31Y W33F V37H" endpointlabel="yeast surface expression" endpointresult=0.788
